- Subject Of Test: voltage-sensitive sodium channels
- Test Summary: [3H]BTX binding to rat cortical synaptosomes
- Settings: depolarizing conditions (135 mM KCl), read-out: IC50 (μM) [3H]BTX binding, values in parentheses
Readout Name: IC50 (µM)
Numbers only, in µM.

Compound: COc1ccccc1N(C(=O)Nc1cc(C(=O)O)nc2cc(Cl)cc(Cl)c12)c1ccccc1
Subject Of Test: voltage-sensitive sodium channels
Unit Abbrev: µM
IC50: 30

Could you now look at the following compound, please?
IN: Look at this compound and give its reported IC50. NC(=O)N1c2ccccc2C=Cc2ccccc21 [Carbamazepine, carbamazepine, reference compound]
OUT: 56

---

Give IC50 for every item shown.
- Subject Of Test: strychnine-insensitive glycine binding site on the NMDA receptor (Rattus norvegicus)
- Construct: from tissue; host or cells: rat cerebral cortex, crude synaptic (buffy coat) membranes
- Test Summary: [3H]5,7-DCKA binding to rat cortical membranes
- Settings: 20 nM [3H]5,7-DCKA
Numbers only, in µM.

Compound: COC(=O)c1cc(NC(=O)N(c2ccccc2)c2ccccc2)c2c(Cl)cc(Cl)cc2n1
Subject Of Test: strychnine-insensitive glycine binding site on the NMDA receptor (Rattus norvegicus)
IC50, µM: 5

Hi team, please reply with IC50 for each item in this list.
1. O=C(O)c1cc(NC(=O)N(c2ccccc2)c2ccccc2)c2c(Cl)cc(Cl)cc2n1
2. O=C(O)c1cc(=O)c2c(Cl)cc(Cl)cc2[nH]1 [5,7-DCKA, 5,7-dichlorokynurenate, reference compound]
3. COc1ccccc1N(C(=O)Nc1cc(C(=O)O)nc2cc(Cl)cc(Cl)c12)c1ccccc1

OUT:
1. 22
2. 0.11
3. 35
